The measurements presented in this section are drawn from PubChem BioAssay (NCATS).

# TEST METHOD NOTES: Quantitative High-Throughput drug screen in 47 multiple myeloma cell lines against the NCATS MIPE library collection: OCIMY5_PLB cell viability assay (AID 1918988); further: potency means the concentration at half of the fitted maximal effect; nearly all actives have a fitted effect of over 65% in size
# CONDITION CONTEXT: OCI-MY5 myeloma viability, ATP luminescence, 48 h; series mostly up to 45.8 µM
Inconclusive results are not listed. The source made the active and inactive calls. The call rests on the fitted dose curve; in most records, active means well fitted cell-killing curve with a large enough effect; inconclusive means small, poorly fitted or top-dose-only effect, or effect the other way; inactive means no such curve, though single readings can be large or run the other way. Residues, ends and D or L forms follow the SMILES beside them. *: point of attachment. Cbz = O=C(OCc1ccccc1)*
EXPERIMENTAL ENDPOINT: Potency

INSERT INTO assay_data (molecule, experimental_endpoint, reported_result) VALUES
  ('CC(C)C[C@@H](C=O)NC(=O)[C@H](CC(C)C)NC(=O)[C@H](CC(C)C)NC(=O)OCc1ccccc1 (Cbz-Leu-Leu-Leu-aldehyde)', 'Potency', '0.372 µM (active)'),
  ('c1coc(CNc2ncnc3nc[nH]c23)c1', 'Potency', '2.09 µM (active)'),
  ('C=C(C)[C@@H]1CC[C@]2(C(=O)O)CC[C@]3(C)[C@H](CC[C@@H]4[C@@]5(C)CC[C@H](O)C(C)(C)[C@@H]5CC[C@]43C)[C@@H]12', 'Potency', '5.9 µM (active)'),
  ('C[C@@H](Oc1ccc2[nH]nc(C=Cc3cnn(CCO)c3)c2c1)c1c(Cl)cncc1Cl', 'Potency', '6.62 µM (active)');

* * *

# TEST METHOD NOTES: Quantitative High-Throughput drug screen in 47 multiple myeloma cell lines against the NCATS MIPE library collection: U266_ATCC cell viability assay (AID 1919864); further: potency means the concentration at half of the fitted maximal effect; nearly all actives have a fitted effect of over 35% in size
# CONDITION CONTEXT: U266 myeloma viability, CellTiter-Glo ATP luminescence, 48 h; series mostly up to 45.8 µM
Results filed as inconclusive are left out. Active and inactive are the calls of the source. Calls follow the shape of the dose curve; as a rule, active = well fitted cell-killing curve with a large enough effect; inconclusive = small, poorly fitted or top-dose-only effect, or effect the other way; inactive = no such curve, though single readings can be large or run the other way.
In this section we review reported Potency values for a set of molecules.
EXPERIMENTAL ENDPOINT: Potency

INSERT INTO measurements (molecule, reported_result) VALUES
  ('N=c1ccn2c(n1)O[C@H]1[C@@H](O)[C@@H](CO)O[C@H]12', '18.7 µM (active)'),
  ('CC(=O)O[C@H]1C[C@@H]2CC[C@H]3[C@H]4C[C@H]([N+]5(C)CCCCC5)[C@@H](OC(C)=O)[C@@]4(C)CC[C@@H]3[C@@]2(C)C[C@H]1[N+]1(C)CCCCC1', '23.5 µM (active)'),
  ('Cn1cc(C2=C(c3c4n(c5ccccc35)CCC(CN)C4)C(=O)NC2=O)c2ccccc21 (centres undefined)', '16.6 µM (active)'),
  ('COc1cccc2c1C(=O)c1c(O)c3c(c(O)c1C2=O)C[C@@](O)(C(=O)CO)C[C@@H]3O[C@H]1C[C@H](N)[C@@H](O)[C@H](C)O1', '1.32 µM (active)');

* * *

# TEST METHOD NOTES: Quantitative High-Throughput drug screen in 47 multiple myeloma cell lines against the NCATS MIPE library collection: XG6_PLB cell viability assay (AID 1919865); further: nearly all actives have a fitted effect of over 40% in size
# CONDITION CONTEXT: XG6 myeloma viability, CellTiter-Glo ATP luminescence, 48 h; series mostly up to 45.8 µM
Inconclusive results are not listed. Calls of active or inactive are those of the source. Calls come from the whole dose curve; as a rule, active = well fitted cell-killing curve with a large enough effect; inconclusive = small, poorly fitted or top-dose-only effect, or effect the other way; inactive = no such curve, though single readings can be large or run the other way.
Outcome codes: active, inactive

INSERT INTO results (compound, answer_label) VALUES
  ('CC(=O)O[C@H]1C[C@@H]2CC[C@H]3[C@H]4C[C@H]([N+]5(C)CCCCC5)[C@@H](OC(C)=O)[C@@]4(C)CC[C@@H]3[C@@]2(C)C[C@H]1[N+]1(C)CCCCC1', 'inactive'),
  ('Oc1cc2c(cc1O)C1c3ccc(O)c(O)c3OCC1(O)C2 (stereo not given)', 'inactive'),
  ('CC(=O)ON=C1C(c2c(O)[nH]c3cc(Br)ccc23)=Nc2ccccc21', 'active'),
  ('C#CCC(Cc1cnc2nc(N)nc(N)c2n1)c1ccc(C(=O)N[C@@H](CCC(=O)O)C(=O)O)cc1 (stereo not given in full)', 'active'),
  ('O=C1NC(=O)C(=Cc2ccc3nccc(-c4ccncc4)c3c2)S1', 'active'),
  ('COc1cc2c(Nc3ccc(Cl)c(Cl)c3F)ncnc2cc1OCC1C[C@@H]2CN(C)C[C@H]2C1', 'active'),
  ('COc1cc(C=CC(=O)CC(=O)C=Cc2ccc(O)c(OC)c2)ccc1O', 'active'),
  ('CC(=O)NC(CS)C(=O)O (stereo not given)', 'inactive'),
  ('O=C(O)C[C@H](O)C[C@H](O)C=Cc1c(C2CC2)nc2ccccc2c1-c1ccc(F)cc1', 'active'),
  ('CCCc1nc(C(C)(C)O)c(C(=O)O)n1Cc1ccc(-c2ccccc2-c2nn[nH]n2)cc1', 'inactive');

* * *

# TEST METHOD NOTES: qHTS of pediatric cancer cell lines to identify multiple opportunities for drug repurposing: Primary screen for DAOY cells (AID 1347090); further: nearly all actives have a fitted effect of over 55% in size
# CONDITION CONTEXT: DAOY medulloblastoma viability, CellTiter-Glo luminescence, 48 h; series mostly up to 46 µM
Records with an inconclusive call do not appear. Calls of active or inactive are those of the source. The call rests on the fitted dose curve; in most records, active means well fitted cell-killing curve with a large enough effect; inconclusive means small, poorly fitted or top-dose-only effect; inactive means flat fitted curve, though single readings scatter.
Outcome codes: active, inactive

INSERT INTO assay_data (compound, answer_label) VALUES
  ('C[C@H](O)[C@@H]1C(=O)N2C(C(=O)O)=C(S[C@@H]3CN[C@H](CNS(N)(=O)=O)C3)[C@@H](C)[C@@H]12', 'inactive'),
  ('O=C(O)CCCCC(CCSCc1ccccc1)SCc1ccccc1 (stereo not given)', 'active'),
  ('CN[C@@H]1C[C@H]2O[C@@](C)([C@H]1OC)n1c3ccccc3c3c4c(c5c6ccccc6n2c5c31)C(=O)N[C@H]4O', 'active'),
  ('N#CC(=C(N)Sc1ccc(N)cc1)c1ccccc1C(F)(F)F', 'inactive'),
  ('COC[C@H](NC(=O)c1cnc(C)s1)C(=O)N[C@@H](COC)C(=O)N[C@@H](Cc1ccccc1)C(=O)[C@@]1(C)CO1', 'active'),
  ('CCCCOc1ccc(C(=O)Nc2ccc(F)cc2F)cc1', 'inactive'),
  ('C=CC1=C(C(=O)O)N2C(=O)[C@@H](NC(=O)C(=NO)c3csc(N)n3)[C@H]2SC1', 'inactive'),
  ('CC(C)c1cnn2c(NCc3ccccc3)cc(NCCCCCCN)nc12', 'active'),
  ('CN(C)c1ccc2cc(C(=O)N[C@@H](CCCN=C(N)CCl)C(=O)NCc3ccccc3)ccc2c1', 'active'),
  ('CC(Oc1ccc(O)cc1)(P(=O)(O)O)P(=O)(O)O', 'inactive');

* * *

# TEST METHOD NOTES: Quantitative High-Throughput drug screen in 47 multiple myeloma cell lines against the NCATS MIPE library collection: JJN3_DSMZ cell viability assay (AID 1918966; further: nearly all actives have a fitted effect of over 50% in size)
# CONDITION CONTEXT: JJN3 myeloma cells viability, CellTiter-Glo ATP, 48 h; series mostly up to 45.8 µM
Inconclusive results are not listed. The source made the active and inactive calls. Calls follow the shape of the dose curve; as a rule, active = well fitted cell-killing curve with a large enough effect; inconclusive = small, poorly fitted or top-dose-only effect, or effect the other way; inactive = no such curve, though single readings can be large or run the other way. Starred links: 1 amine or outer side, 2 acyl side, 3 side chain; linkers in the order of their positions; H or OH if unused. Positions of bridges follow the written chain, without caps; N, C: chain ends. Non-standard residues stand in square brackets, D forms with d. Residues, ends and D or L forms follow the SMILES beside them. Chains are numbered I, II in the order given. Actinocin(9to1) = Cc1c2oc3c(C)ccc(C(=O)[*:1])c3nc-2c(C(=O)[*:2])c(N)c1=O; NMeV = CN[CH](C(=O)O)C(C)C; Sar = CNCC(=O)O
Outcome codes: active, inactive

INSERT INTO measurements (molecule, answer_label) VALUES
  ('Cn1cc(CNCC2CCN(c3ncc(C(=O)NO)cn3)CC2)c2ccccc21', 'active'),
  ('COc1cc2c(cc1O)CCC1C2CC[C@@]2(C)C1CC[C@@H]2O (stereo partly drawn)', 'active'),
  ('Cc1c2oc3c(C)ccc(C(=O)NC4C(=O)NC(C(C)C)C(=O)N5CCCC5C(=O)N(C)CC(=O)N(C)C(C(C)C)C(=O)OC4C)c3nc-2c(C(=O)NC2C(=O)NC(C(C)C)C(=O)N3CCCC3C(=O)N(C)CC(=O)N(C)C(C(C)C)C(=O)OC2C)c(N)c1=O (stereo not drawn) (I: TVP[Sar][NMeV] / II: TVP[Sar][NMeV]; ester I:1-I:C, II:1-II:C; linker I:N-II:N via Actinocin(9to1); configuration not given here)', 'inactive');

* * *

# TEST METHOD NOTES: qHTS of pediatric cancer cell lines to identify multiple opportunities for drug repurposing: Primary screen for SK-N-SH cells (AID 1347098); further: nearly all actives have a fitted effect of over 65% in size
# CONDITION CONTEXT: SK-N-SH viability, CellTiter-Glo luminescence, 48 h; series mostly up to 57 µM
Results filed as inconclusive are left out. Calls of active or inactive are those of the source. Calls follow the shape of the dose curve; as a rule, active = well fitted cell-killing curve with a large enough effect; inconclusive = small, poorly fitted or top-dose-only effect; inactive = no such curve, though single readings can be large or run the other way. Positions of bridges follow the written chain, without caps; N, C: chain ends. Non-standard residues stand in square brackets, D forms with d. Residues, ends and D or L forms follow the SMILES beside them. ξ: configuration not given here. *: point of attachment. Octanoyl(6-Me) = CCC(C)CCCCC(=O)*; ξThr(3R) = C[C@@H](O)C(N)C(=O)O; dDab = NCC[C@@H](N)C(=O)O; Dab = NCC[C@H](N)C(=O)O
Outcome codes: active, inactive

INSERT INTO results (compound, answer_label) VALUES
  ('Nc1nc(=O)n([C@H]2CSC(CO)O2)cc1F (some centres not stated)', 'inactive'),
  ('CC[C@@]1([C@@H]2O[C@@H]([C@H]3O[C@@](O)(CO)[C@H](C)C[C@H]3C)C[C@H]2C)CC[C@H]([C@]2(C)CC[C@]3(C[C@H](O)[C@@H](C)[C@@H]([C@@H](C)[C@@H](OC)[C@H](C)C(=O)O)O3)O2)O1', 'active'),
  ('CC(=O)N[C@@H]1[C@H](O[C@@H]2c3ccc(c(Cl)c3)Oc3cc4cc(c3O[C@H]3O[C@H](CO)[C@@H](O)[C@H](O)[C@H]3NC(=O)CCCCCCCC(C)C)Oc3ccc(cc3Cl)C[C@H]3NC(=O)[C@H](N)c5ccc(O)c(c5)Oc5cc(O)cc(c5)[C@H](NC3=O)C(=O)N[C@H]4C(=O)N[C@H]3C(=O)N[C@@H]2C(=O)N[C@@H](C(=O)O)c2cc(O)cc(O[C@H]4O[C@H](CO)[C@@H](O)[C@H](O)[C@H]4O)c2-c2cc3ccc2O)O[C@H](CO)[C@@H](O)[C@@H]1O', 'inactive'),
  ('Cc1cc(O)c2c(c1)C(=O)c1cccc(O)c1C2=O', 'inactive'),
  ('C[C@]12C=CC(=O)N[C@@H]1CC[C@H]1[C@H]3CC[C@@H](C(=O)Nc4cc(C(F)(F)F)ccc4C(F)(F)F)[C@@]3(C)CC[C@@H]12', 'inactive'),
  ('C[C@@H]1CC[C@@]2(OC1)OC1CC3C4CC=C5CC(O)CCC5(C)C4CCC3(C)C1[C@@H]2C (some centres not stated)', 'inactive'),
  ('c1cc(N[C@@H]2CCNC2)nc(-c2cnc3ccc(-c4cn[nH]c4)cn23)c1', 'active'),
  ('CC(Oc1ccc(O)cc1)(P(=O)(O)O)P(=O)(O)O', 'inactive'),
  ('CCC(C)CCCCC(=O)N[C@@H](CCN)C(=O)NC(C(=O)N[C@H](CCN)C(=O)N[C@@H]1CCNC(=O)C([C@@H](C)O)NC(=O)[C@@H](CCN)NC(=O)[C@@H](CCN)NC(=O)[C@@H](CC(C)C)NC(=O)[C@H](Cc2ccccc2)NC(=O)[C@H](CCN)NC1=O)[C@@H](C)O (stereo partly drawn) ({Octanoyl(6-Me)}-[Dab][ξThr(3R)][dDab][dDab][Dab]F[dL][dDab][dDab][ξThr(3R)]; lactam 4-C)', 'inactive'),
  ('CCCCC(=O)O[C@]1(C(=O)CO)[C@@H](C)C[C@H]2[C@@H]3CCC4=CC(=O)C=C[C@]4(C)[C@@]3(F)[C@@H](O)C[C@@]21C', 'inactive'),
  ('O=C(C=CC=Cc1ccc2c(c1)OCO2)N1CCCCC1', 'inactive'),
  ('C=CC[C@@H]1C=C(C)C[C@H](C)C[C@H](OC)[C@H]2O[C@@](O)(C(=O)C(=O)N3CCCC[C@H]3C(=O)O[C@H](C(C)=C[C@@H]3CC[C@H](O)[C@H](OC)C3)[C@@H](C)[C@@H](O)CC1=O)[C@@H](C)C[C@@H]2OC', 'active');
